Value source: ChEMBL document CHEMBL3988442

Target: Histidine--tRNA ligase (Leishmania infantum)
Sequence (whole entry): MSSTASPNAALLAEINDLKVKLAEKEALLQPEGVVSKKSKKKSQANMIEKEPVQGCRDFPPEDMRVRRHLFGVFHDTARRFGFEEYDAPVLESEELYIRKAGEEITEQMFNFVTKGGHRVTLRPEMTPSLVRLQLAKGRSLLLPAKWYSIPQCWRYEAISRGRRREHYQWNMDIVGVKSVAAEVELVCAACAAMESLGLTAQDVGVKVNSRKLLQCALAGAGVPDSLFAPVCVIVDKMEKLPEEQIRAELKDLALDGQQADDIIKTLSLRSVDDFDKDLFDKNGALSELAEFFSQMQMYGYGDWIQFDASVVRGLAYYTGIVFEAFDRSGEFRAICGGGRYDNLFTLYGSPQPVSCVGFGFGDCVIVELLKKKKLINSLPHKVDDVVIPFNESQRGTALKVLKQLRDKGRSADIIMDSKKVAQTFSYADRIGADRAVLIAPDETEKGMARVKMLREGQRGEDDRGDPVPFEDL
Assay: Leishmania infantum Histidine tRNA synthetase (LdHisRS)
Assay type: functional
Parameters: scale not given: in the data most compounds retested in dose-response had high values
Conditions: 30 µM
The whole screen tested about 69,000 compounds, of which about 420 (0.61%) showed an effect of 50% or more. Only a selection was taken, and strong results are over-represented in it overall.
QUANTITY_MEASURED: Percent Effect (%)

COMPOUND	QUANTITY_MEASURED	REPORTED_MEASUREMENT
O=C(CC1CCCCC1)N1C[C@H]2CC[C@@H]1CN(Cc1cccnc1)C2	Percent Effect	9.68
CCN1C(=O)C[C@@H]2[C@@H]1CCN2S(=O)(=O)c1cccc(C)c1	Percent Effect	0
O=C([C@@H]1C[C@@H]2CCN(C3CCOCC3)C[C@@H]2O1)N1CCOCC1	Percent Effect	8.33
Cc1c(CS(C)(=O)=O)cccc1NC(=O)CC1CCCC1	Percent Effect	11.7
CC(C)(C)CC(=O)Nc1ccccc1SCC(N)=O	Percent Effect	9.57
Cn1cc(Br)cc(NC(=O)CC2CCC2)c1=O	Percent Effect	103
Cc1noc(C)c1C(=O)N1CCC(Nc2cccnn2)CC1	Percent Effect	60.5
Cn1cc(C(=O)N2CC[C@@H]3[C@@H]2CCN3c2ccccn2)cn1	Percent Effect	16
Cc1ccc(NC2CCN(C(=O)c3c(C)noc3C)CC2)nn1	Percent Effect	28
CCC(=O)Nc1cc(Br)cn(C)c1=O	Percent Effect	103
Cc1cccc(CN2C[C@@H]3CN(C4CCOCC4)C[C@@H]3C2=O)c1	Percent Effect	19.7
COc1c(NC(=O)N(C)CCOc2ccccc2)c(C)nn1C	Percent Effect	24.1
Cn1cc(Br)cc(NC(=O)Cc2cccs2)c1=O	Percent Effect	34
Cc1nc(-c2ccoc2)n(CC(=O)N(C)CC(C)C)c1C	Percent Effect	15.8
Cc1cccc(S(=O)(=O)N2CC[C@H]3CO[C@H](CN(C)C)[C@H]3C2)c1	Percent Effect	0.917
Cc1noc([C@]23COC[C@H]2CN(C(=O)Cc2ccsc2)C3)n1	Percent Effect	9.91
COCCN1C[C@@H]2CN(c3cnccn3)C[C@@H]2C1=O	Percent Effect	16
COCCN1CCCC(C)(c2cc(O)[nH]n2)C1 (stereo unspecified)	Percent Effect	47.1
Cn1ccc(CN2CCC(CC(=O)NC3CCCC3)CC2)cc1=O	Percent Effect	-8.33
CCn1nc2c(cc1=O)CN(Cc1nc(-c3cccs3)no1)CC2	Percent Effect	25.9
Cc1noc(C)c1CC(=O)N1CCC(Nc2cccnn2)CC1	Percent Effect	12.5

====

Reported values of Percent Effect for individual entries
molecular target: Histidine--tRNA ligase (Leishmania infantum) (UniProt A4I591); assay: Leishmania infantum Histidine tRNA synthetase (LdHisRS); type: functional; set-up: scale not given: in the data most compounds retested in dose-response had high values; conditions: 30 µM
Screen size: about 69,000 compounds; about 420 (0.61%) showed an effect of 50% or more. Only a selection was taken, and strong results are over-represented in it overall.

STRUCTURE_SMILES_STRING	UNIT_NAME	Percent Effect
Cn1nc2c(cc1=O)CN(Cc1coc(-c3cccc(F)c3)n1)CC2	%	90.3
Cn1nc2c(cc1=O)CN(CC(=O)Nc1nccs1)CC2	%	48.2
O=C(c1ncccn1)N1C[C@@H]2COC[C@]2(COc2cccnc2)C1	%	17.3
CN(C(=O)c1ccccc1NCC(=O)O)C(C1CC1)C1CC1	%	-4.2
c1ccc(CN2C[C@@H]3CC[C@H](C2)N(Cc2nnc(C4CC4)o2)C3)cc1	%	34

====

Target: Histidine--tRNA ligase (Leishmania infantum)
Sequence (whole entry): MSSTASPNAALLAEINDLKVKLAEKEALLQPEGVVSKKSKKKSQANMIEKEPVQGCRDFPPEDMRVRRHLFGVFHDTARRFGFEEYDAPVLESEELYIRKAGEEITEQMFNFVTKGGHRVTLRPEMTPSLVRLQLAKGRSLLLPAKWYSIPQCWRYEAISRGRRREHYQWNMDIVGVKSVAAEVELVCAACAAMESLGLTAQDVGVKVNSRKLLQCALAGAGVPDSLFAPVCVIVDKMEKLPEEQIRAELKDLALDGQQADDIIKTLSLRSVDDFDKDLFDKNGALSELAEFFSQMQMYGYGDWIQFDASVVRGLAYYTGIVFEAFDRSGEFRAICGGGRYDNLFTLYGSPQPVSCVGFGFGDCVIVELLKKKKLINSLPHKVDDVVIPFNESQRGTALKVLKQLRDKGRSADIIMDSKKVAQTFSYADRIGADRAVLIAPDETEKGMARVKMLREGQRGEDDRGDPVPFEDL
Test: Leishmania infantum Histidine tRNA synthetase (LdHisRS)
Assay type: functional
Set-up: scale not given: in the data most compounds retested in dose-response had high values
Conditions: 30 µM
Out of some 69,000 compounds screened, about 420 (0.61%) showed an effect of 50% or more. The full list was thinned out, with strong results kept by preference.
Reported values of Percent Effect for individual entries
QUANTITY_MEASURED: Percent Effect (%)

COMPOUND	QUANTITY_MEASURED	UNIT_NAME	REPORTED_MEASUREMENT
O=C([C@H]1C[C@H]2OCC[C@H]2N(Cc2ccco2)C1)N1CCCO1	Percent Effect	%	22.2
CNC1CCN(C2CCN(c3ccc(-c4ccco4)cc3)CC2)CC1	Percent Effect	%	42.1
COC[C@@H]1CC[C@H]2[C@H](CCN2S(=O)(=O)c2ccc(C)cc2)O1	Percent Effect	%	2.65
CCNc1cc(N2CCN(C(=O)c3ccc(OC)cc3)CC2)nc(C)n1	Percent Effect	%	2.4
Cc1nc(C)n(CC2CCCN2Cc2nc(C)c3ccccc3n2)n1 (centres undefined)	Percent Effect	%	56.5
Cc1nc(CCN)cc(N2CCC(O)(c3ccc(Cl)cc3)CC2)n1	Percent Effect	%	52.1
COC[C@@]12CCO[C@@H]1CCN(Cc1ccc(C)s1)C2	Percent Effect	%	-2
Cc1nc(CCN)cc(N2CCC(O)(c3ccccc3)C2)n1 (centres undefined)	Percent Effect	%	7.04
CN(C)C(=O)N1C[C@@H]2CC[C@H](C1)N(C(=O)c1c(Cl)cccc1Cl)C2	Percent Effect	%	8.06

====

Target: Histidine--tRNA ligase (Leishmania infantum) (UniProt A4I591)
Sequence (whole entry): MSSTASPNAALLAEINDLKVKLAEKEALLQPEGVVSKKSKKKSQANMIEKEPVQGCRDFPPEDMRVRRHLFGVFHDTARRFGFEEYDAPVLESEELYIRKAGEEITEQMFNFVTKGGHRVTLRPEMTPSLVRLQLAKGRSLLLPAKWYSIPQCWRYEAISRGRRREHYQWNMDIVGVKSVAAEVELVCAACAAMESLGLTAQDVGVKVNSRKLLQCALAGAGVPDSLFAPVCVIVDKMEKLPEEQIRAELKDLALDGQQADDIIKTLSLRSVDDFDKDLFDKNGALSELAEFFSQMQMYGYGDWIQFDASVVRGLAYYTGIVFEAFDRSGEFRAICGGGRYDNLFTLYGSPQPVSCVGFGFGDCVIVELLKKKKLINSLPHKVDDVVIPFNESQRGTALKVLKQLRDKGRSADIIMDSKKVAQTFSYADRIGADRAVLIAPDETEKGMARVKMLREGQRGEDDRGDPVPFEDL
Assay: Leishmania infantum Histidine tRNA synthetase (LdHisRS)
Format: functional
Parameters: scale not given: in the data most compounds retested in dose-response had high values
Settings: 30 µM
About 420 (0.61%) of roughly 69,000 compounds showed an effect of 50% or more. The entries come from a sample that favours strong results as a whole.
Recorded Percent Effect determines the label; the label ranges are group A (below 10%), group B (10% to below 20%), group C (20% or more)

COMPOUND	GROUP
Cc1cnc(CNCc2cnc(-c3ccccc3C)s2)cn1	group B
Cc1cc(C(=O)N2CC[C@@H]3CO[C@@H](CN4CCCC4)[C@@H]3C2)no1	group A
CCc1ncc2c(n1)CN(Cc1nnc(Cc3ccccc3)o1)CC2	group C
CC(C)c1ncc2c(n1)CN(Cc1nnc(Cc3ccccc3)o1)CC2	group C
COc1ccc(-n2cc(CNC(=O)c3cc[nH]n3)nn2)cc1	group C
CNC(=O)[C@@H]1[C@@H](c2ccccc2)CN2CCN(Cc3cccs3)C[C@H]12	group A
CC(C)(C)SCCN1CC(=O)N2CC[C@@H](O)C[C@H]2C1=O	group B
Cn1cc(NC(=O)N2CCC2c2ccccc2)ccc1=O (stereo not given)	group C
Cn1cc(NC(=O)C2CC(c3ccccc3)C2)ccc1=O (stereo not given)	group C
Cc1cccc(CN2C(=O)CC[C@@H]3[C@H]2CCN3Cc2ccc(C)s2)n1	group A
COc1ccc(CN2C[C@@H]3OCCN(C)[C@@H]3C2)cc1	group B
CN(C)C(=O)CO[C@H]1CN(Cc2ccc3c(c2)OCO3)[C@@H]2COC[C@H]12	group B
Cc1cccc(S(=O)(=O)N2C[C@H]3C[C@H](C(=O)NCC(C)C)[C@@H](C2)O3)c1	group B
Cc1oncc1C(=O)N1CC[C@H]2[C@@H]1CCC(=O)N2CC1CC1	group A
CN1C(=O)CO[C@H](c2ccc(NC(=O)Nc3ccccc3)cc2)[C@H]1CO	group B
CC(=O)N1[C@H](Cn2cncn2)C[C@@H]2CN(C(=O)c3ccoc3)CC[C@@H]21	group B
Cn1cc(C(=O)N2CCN(c3ccccc3)CC2)ccc1=O	group B
CN1CCCN(C(=O)c2nc3c(s2)CCCN3CC2CC2)CC1	group C
Cc1ccc(NC(=O)Nc2c(O)oc3ccccc3c2=O)cc1	group A
